# measurement.protocol: metabolic stability, mouse microsomes
# Type: in vitro ADME
value.kind: microsomal CLint (µL/min/mg)

>>> observed_value("O=C(Cc1ccc2c(c1)OCCO2)Nc1nc(-c2ccc3c(c2)CCC(=O)N3)cs1 [Compound (If)]")
7.09

* * *

Known fraction unbound at 4 h, 5 µM of a selection of molecules
# measurement.protocol: plasma protein binding, Rapid Equilibrium Dialysis (RED), rat
# Assay type: in vitro ADME
# condition.details: 4h at 37°C
# Method: Plasma from Seralab was employed in the assay and was carried out by employing Rapid Equilibrium Dialysis (RED) from Thermo Scientific. The compounds were dissolved at 5 µM in plasma and added to the corresponding insert of the RED device. Dialysis buffer was added to the corresponding insert of the RED device. Plate was incubated for 4h at 37°C. After the incubation period 50 µL aliquots of each chamber were transferred to empty vials. […] Samples were analyzed in a UPLC/MS/MS. […]
value.kind: fraction unbound at 4 h, 5 µM

>>> observed_value("O=C(Cc1ccc2c(c1)OCCO2)Nc1nc(-c2ccc3c(c2)CCC(=O)N3)cs1 [Compound (If)]")
0.001
>>> observed_value("O=C1NC(=O)C(c2ccccc2)(c2ccccc2)N1 [Phenytoin, reference compound]")
0.138

* * *

# measurement.protocol: physchem
# condition.details: pbs with 1% dmso, 37 °C, aqueous buffer, kinetic from dmso stock
Response key: Fulfilled means solubility at 2 h >= 20 µM; Not fulfilled means solubility at 2 h < 20 µM.

>>> assigned_label("O=C(Cc1ccc2c(c1)OCCO2)Nc1nc(-c2ccc(Cl)cc2)cs1")
"Fulfilled"
>>> assigned_label("O=C(Cc1ccc2c(c1)OCCO2)Nc1nc(-c2ccc(Br)cc2)cs1")
"Fulfilled"
>>> assigned_label("O=C(Cc1ccc2c(c1)OCCO2)Nc1nc(-c2ccc3c(c2)CCCC3)cs1")
"Fulfilled"
>>> assigned_label("O=C(Cc1ccc2c(c1)OCCO2)Nc1nc(-c2ccccc2)cs1")
"Not fulfilled"
>>> assigned_label("O=C(Cc1ccc2c(c1)OCCO2)Nc1nc(-c2ccc3ccccc3c2)cs1")
"Fulfilled"

* * *

# tested.on: CYP2D6 (Homo sapiens, UniProt P10635)
# Construct: 0.5 mg protein/mL of liver microsomes (HLM Xenotech); tissue Xenotech; host or cells: liver microsomes
# Sequence (P10635 whole entry): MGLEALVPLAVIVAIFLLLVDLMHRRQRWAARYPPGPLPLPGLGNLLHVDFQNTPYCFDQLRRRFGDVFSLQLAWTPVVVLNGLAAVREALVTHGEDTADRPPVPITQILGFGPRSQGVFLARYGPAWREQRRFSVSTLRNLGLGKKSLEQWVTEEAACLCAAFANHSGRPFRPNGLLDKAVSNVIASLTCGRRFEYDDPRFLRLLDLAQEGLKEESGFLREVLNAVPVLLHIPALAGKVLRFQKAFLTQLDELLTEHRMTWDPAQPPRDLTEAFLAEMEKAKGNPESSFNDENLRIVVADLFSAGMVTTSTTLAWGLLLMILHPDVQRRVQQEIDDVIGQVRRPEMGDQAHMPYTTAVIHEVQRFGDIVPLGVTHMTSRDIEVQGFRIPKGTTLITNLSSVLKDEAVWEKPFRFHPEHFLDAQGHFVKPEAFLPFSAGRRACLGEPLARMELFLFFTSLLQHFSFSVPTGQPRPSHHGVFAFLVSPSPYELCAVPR
# measurement.protocol: CYP inhibition, liver microsomes, substrate cocktail
# Type: in vitro ADME
# condition.details: human, liver microsomes, pH 7.4; CYP2D6, 10µM, substrate bufuralol
value.kind: inhibition at 25 min, 10 µM

>>> observed_value("O=C(Cc1ccc2c(c1)OCCO2)Nc1nc(-c2ccc3c(c2)CCC(=O)N3)cs1 [Compound (If)]")
"-2.9%"

* * *

# measurement.protocol: metabolic stability, rat microsomes
# Assay type: in vitro ADME
# condition.details: Rat microsomes
value.kind: half-life (h)

>>> observed_value("O=C(Cc1ccc2c(c1)OCCO2)Nc1nc(-c2ccc3c(c2)CCC(=O)N3)cs1")
1.03

* * *

# tested.on: CYP2C9 (Homo sapiens)
# Construct: 0.5 mg protein/mL of liver microsomes (HLM Xenotech); tissue Xenotech; host or cells: liver microsomes
# Sequence (P11712 whole entry): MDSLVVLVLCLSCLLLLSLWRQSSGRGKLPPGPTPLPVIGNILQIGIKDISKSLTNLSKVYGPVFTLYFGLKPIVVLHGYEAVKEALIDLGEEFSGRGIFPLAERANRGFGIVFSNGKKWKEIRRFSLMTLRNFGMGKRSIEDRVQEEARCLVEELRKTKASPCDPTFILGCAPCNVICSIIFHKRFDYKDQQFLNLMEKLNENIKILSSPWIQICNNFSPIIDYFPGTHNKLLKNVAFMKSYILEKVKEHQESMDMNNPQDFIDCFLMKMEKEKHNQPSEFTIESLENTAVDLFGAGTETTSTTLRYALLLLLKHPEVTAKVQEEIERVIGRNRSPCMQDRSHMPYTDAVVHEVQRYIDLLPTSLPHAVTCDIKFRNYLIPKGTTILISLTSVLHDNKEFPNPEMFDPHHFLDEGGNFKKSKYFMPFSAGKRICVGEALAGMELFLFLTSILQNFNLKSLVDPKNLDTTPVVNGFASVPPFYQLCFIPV
# measurement.protocol: CYP inhibition, liver microsomes, substrate cocktail
# Assay type: in vitro ADME
# condition.details: human, liver microsomes, pH 7.4; CYP2C9, 10µM, substrate diclofenac
value.kind: inhibition at 25 min, 10 µM (%)

>>> observed_value("O=C(Cc1ccc2c(c1)OCCO2)Nc1nc(-c2ccc3c(c2)CCC(=O)N3)cs1 [Compound (If)]")
-0.7

* * *

# tested.on: CYP3A4 (Homo sapiens, UniProt P08684)
# Construct: 0.5 mg protein/mL of liver microsomes (HLM Xenotech); tissue Xenotech; host or cells: liver microsomes
# Sequence (P08684 whole entry): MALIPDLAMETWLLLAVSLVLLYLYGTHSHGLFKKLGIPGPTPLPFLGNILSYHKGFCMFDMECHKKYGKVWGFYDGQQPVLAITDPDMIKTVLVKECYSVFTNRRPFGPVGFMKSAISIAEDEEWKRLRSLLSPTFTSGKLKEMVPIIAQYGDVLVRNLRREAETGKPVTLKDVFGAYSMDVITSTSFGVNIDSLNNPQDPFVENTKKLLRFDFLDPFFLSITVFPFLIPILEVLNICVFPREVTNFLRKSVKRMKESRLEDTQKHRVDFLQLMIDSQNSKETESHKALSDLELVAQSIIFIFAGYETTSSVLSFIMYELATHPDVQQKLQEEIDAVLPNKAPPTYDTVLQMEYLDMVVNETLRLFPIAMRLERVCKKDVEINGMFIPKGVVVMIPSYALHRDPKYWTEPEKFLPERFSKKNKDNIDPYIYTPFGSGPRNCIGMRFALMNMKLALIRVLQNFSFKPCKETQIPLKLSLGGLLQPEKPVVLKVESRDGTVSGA
# measurement.protocol: CYP inhibition, liver microsomes, substrate cocktail
# Assay type: in vitro ADME
# condition.details: CYP3A4 (Midazolam)
pIC50: −log10 of the molar value.
value.kind: pIC50

>>> observed_value("O=C(Cc1ccc2c(c1)OCCO2)Nc1nc(-c2ccc3c(c2)CCC(=O)N3)cs1")
"< 5.00"

* * *

# measurement.protocol: metabolic stability, dog microsomes
# Type: in vitro ADME
# condition.details: dog, dog microsomes
value.kind: microsomal CLint (µL/min/mg)

>>> observed_value("C[C@]12CC[C@H]3[C@@H](CCC4=CC(=O)CC[C@@]43C)[C@@H]1CC[C@@H]2O [Testosterone, reference compound]")
11.8

* * *

# tested.on: GPVI (Homo sapiens, UniProt Q9HCN6)
# Sequence (Q9HCN6 21-267 limits assumed): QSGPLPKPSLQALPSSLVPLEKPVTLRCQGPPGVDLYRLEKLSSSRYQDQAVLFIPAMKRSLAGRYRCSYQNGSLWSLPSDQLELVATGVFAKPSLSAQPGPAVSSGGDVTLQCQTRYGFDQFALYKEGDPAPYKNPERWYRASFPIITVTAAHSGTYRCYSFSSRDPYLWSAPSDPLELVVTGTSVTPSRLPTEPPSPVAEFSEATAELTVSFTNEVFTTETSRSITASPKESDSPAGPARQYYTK
# measurement.protocol: label-free biophysical binding assay based on dynamic mass redistribution (DMR), immobilized GPVI
# condition.details: Compound concentration (1µM); DMR response
value.kind: interaction with GPVI, Mean (pm)

>>> observed_value("O=C(Cc1ccc2c(c1)OCCO2)Nc1nc(-c2ccc3c(c2)CCCC3)cs1")
17.38
>>> observed_value("O=C(Cc1ccc2c(c1)OCCO2)Nc1nc(-c2ccccc2)cs1")
10.8
>>> observed_value("O=C(Cc1ccc2c(c1)OCCO2)Nc1nc2c(Cl)cccc2s1 [Ref. compound B, reference compound]")
6.77
>>> observed_value("O=C(Cc1ccc2c(c1)OCCO2)Nc1nc(-c2ccc3ccccc3c2)cs1")
6.50
>>> observed_value("O=C(Cc1ccc2c(c1)OCCO2)Nc1nc(-c2ccc(Cl)cc2)cs1")
13.76
>>> observed_value("Cc1ccc2nc(NC(=O)Cc3ccc4c(c3)OCCO4)sc2c1 [Ref. compound A, reference compound]")
-9.78
>>> observed_value("O=C(Cc1ccc2c(c1)OCCO2)Nc1nc(-c2ccc(Br)cc2)cs1")
12.37

* * *

# tested.on: CYP2C19 (Homo sapiens, UniProt P33261)
# Construct: 0.5 mg protein/mL of liver microsomes (HLM Xenotech); tissue Xenotech; host or cells: liver microsomes
# Sequence (P33261 whole entry): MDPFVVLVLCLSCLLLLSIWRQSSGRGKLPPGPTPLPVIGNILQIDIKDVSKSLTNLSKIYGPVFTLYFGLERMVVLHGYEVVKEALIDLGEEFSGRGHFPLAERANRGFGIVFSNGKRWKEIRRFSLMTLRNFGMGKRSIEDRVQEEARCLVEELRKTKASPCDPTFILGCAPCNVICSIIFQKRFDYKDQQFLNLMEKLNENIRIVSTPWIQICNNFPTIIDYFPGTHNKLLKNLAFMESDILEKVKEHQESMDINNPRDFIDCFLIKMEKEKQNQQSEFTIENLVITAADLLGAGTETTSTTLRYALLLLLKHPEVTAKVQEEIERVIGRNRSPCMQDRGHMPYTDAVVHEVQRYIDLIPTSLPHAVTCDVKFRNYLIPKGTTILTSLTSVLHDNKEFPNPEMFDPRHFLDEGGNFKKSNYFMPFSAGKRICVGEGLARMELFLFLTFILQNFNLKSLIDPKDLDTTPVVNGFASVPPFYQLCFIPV
# measurement.protocol: CYP inhibition, liver microsomes, substrate cocktail
# Format: in vitro ADME
# condition.details: human, liver microsomes, pH 7.4; CYP2C19, 10µM, substrate S-mephenytoin
value.kind: inhibition at 25 min, 10 µM (%)

>>> observed_value("O=C(Cc1ccc2c(c1)OCCO2)Nc1nc(-c2ccc3c(c2)CCC(=O)N3)cs1 [Compound (If)]")
-18.8

* * *

# measurement.protocol: metabolic stability, rat microsomes
# Type: in vitro ADME
# condition.details: rat, rat microsomes
value.kind: half-life

>>> observed_value("C[C@]12CC[C@H]3[C@@H](CCC4=CC(=O)CC[C@@]43C)[C@@H]1CC[C@@H]2O [Testosterone, reference compound]")
"54 s"

* * *

# measurement.protocol: plasma protein binding, Rapid Equilibrium Dialysis (RED), dog
# Type: in vitro ADME
# condition.details: 4h at 37°C
# Protocol: Plasma from Seralab was employed in the assay and was carried out by employing Rapid Equilibrium Dialysis (RED) from Thermo Scientific. The compounds were dissolved at 5 µM in plasma and added to the corresponding insert of the RED device. Dialysis buffer was added to the corresponding insert of the RED device. Plate was incubated for 4h at 37°C. After the incubation period 50 µL aliquots of each chamber were transferred to empty vials. […] Samples were analyzed in a UPLC/MS/MS. […]
Known fraction unbound at 4 h, 5 µM of a selection of molecules
value.kind: fraction unbound at 4 h, 5 µM

>>> observed_value("O=C(Cc1ccc2c(c1)OCCO2)Nc1nc(-c2ccc3c(c2)CCC(=O)N3)cs1 [Compound (If)]")
0.0015
>>> observed_value("O=C1NC(=O)C(c2ccccc2)(c2ccccc2)N1 [Phenytoin, reference compound]")
0.189

* * *

# measurement.protocol: metabolic stability, dog microsomes
# Assay type: in vitro ADME
# condition.details: Dog microsomes
value.kind: half-life (h)

>>> observed_value("O=C(Cc1ccc2c(c1)OCCO2)Nc1nc(-c2ccc3c(c2)CCC(=O)N3)cs1 [Compound (If)]")
5.42

* * *

# measurement.protocol: solubility by nephelometry
# condition.details: 37 °C, aqueous buffer, kinetic from dmso stock
value.kind: solubility at 2 h (µM)

>>> observed_value("C[C@H]1O[C@@H](O[C@H]2[C@@H](O)C[C@H](O[C@H]3[C@@H](O)C[C@H](O[C@H]4CC[C@@]5(C)[C@H](CC[C@@H]6[C@@H]5C[C@@H](O)[C@]5(C)[C@@H](C7=CC(=O)OC7)CC[C@]65O)C4)O[C@@H]3C)O[C@@H]2C)C[C@H](O)[C@@H]1O [Digoxin, reference compound]")
96.9

* * *

# measurement.protocol: metabolic stability, human microsomes
# Assay type: in vitro ADME
value.kind: microsomal CLint (µL/min/mg)

>>> observed_value("O=C(Cc1ccc2c(c1)OCCO2)Nc1nc(-c2ccc3c(c2)CCC(=O)N3)cs1")
10.1

* * *

# tested.on: CYP3A4 (Homo sapiens)
# Construct: 0.5 mg protein/mL of liver microsomes (HLM Xenotech); tissue Xenotech; host or cells: liver microsomes
# measurement.protocol: CYP inhibition, liver microsomes, substrate cocktail
# Type: in vitro ADME
# condition.details: human, liver microsomes, pH 7.4, CYP3A4 (Testosterone), 10µM
value.kind: inhibition at 25 min, 10 µM (%)

>>> observed_value("O=C(Cc1ccc2c(c1)OCCO2)Nc1nc(-c2ccc3c(c2)CCC(=O)N3)cs1")
-12.8
